# assay.method.text: Pharmacokinetics in CD-1 mice (plasma concentrations, PK parameters)
# Format: in vivo
# conditions: CD-1, mouse, plasma, sc, 30 mg/kg, mouse (CD1) sc 30 mg/kg; Mean; read-out: MRTInf_obs
# Procedure: Pharmacokinetics for I-127, I-172 and I-210 were determined in Sprague Dawley rats or CD-1 mice by dosing intravenous (IV), subcutaneous (SC) or per oral (PO) using facility SOPs and sampling plasma at required time points. […] Compounds were extracted from plasma, injected on reverse phase HPLC, eluted with a gradient from 5% to 95% acetonitrile in water and quantified by mass spectrometry with internal standard. […]
Can you tell me MRT inf for the items I'm about to list?
Field format: number, assumed h, no unit text.

Noted for NC(=O)c1nn(-c2ccc(C(=O)NCCCCCNCCNc3cccc4c3C(=O)N(C3CCC(=O)NC3=O)C4=O)cc2)cc1NC(=O)c1coc(-c2ccnc(NCC(F)(F)F)c2)n1 (centres unmarked) : its MRT inf reads 9.4

Noted for O=C1CCC(N2C(=O)c3cccc(NCCOCCOCCNCc4ccc(-n5cc(NC(=O)c6coc(-c7ccnc(NCC8CC8)c7)n6)c(C(F)F)n5)cc4)c3C2=O)C(=O)N1 (centres unmarked) : its MRT inf reads 5.87
